Origin of measurements: patent US9765054B2

system: cellular histone deacetylase enzymatic activity in Jurkat E6-1 cells; experiment: Inhibition of cellular HDAC activity, Boc-Lys(Tfa)-AMC substrate, in Jurkat E6-1 cells; assay type: cell-based; settings: Homo sapiens, Class IIa selective substrate Boc-Lys(Tfa)-AMC
Threshold 1000 nM: IC50 strictly smaller gives True, otherwise False.

Solved cases (3 shown):
Query block: Does O=C(NO)[C@@H]1[C@H](c2ccccc2)[C@H]1c1ccc(C2=CCN(Cc3ccccc3)CC2)cc1 have IC50 strictly under 1000 nM?
Result block: True

Query block: Does O=C(NO)[C@@H]1[C@H](c2ccccc2)[C@H]1c1cccc(N2CCN3CCCC3C2)c1 (relative stereo) [Compound 56f] have IC50 strictly under 1000 nM?
Result block: False

Query block: Does Cc1ccccc1[C@H]1[C@H](C(=O)NO)[C@@H]1c1ccccc1 (racemic) [Compound 18a] have IC50 strictly under 1000 nM?
Result block: False

***
Query block: Does O=C(NO)[C@@H]1[C@H](c2ccccc2)[C@H]1c1cnn(-c2ccc(C(F)(F)F)cn2)c1 [Compound 92b] have IC50 strictly under 1000 nM?
Result block: False

Query block: Does CN1CCOc2cc(-c3ccc([C@H]4[C@H](C(=O)NO)[C@@H]4c4ccccc4)cc3)ccc21 [Compound 54c] have IC50 strictly under 1000 nM?
Result block: False

Query block: Does Cc1cnc(-c2cccc([C@H]3[C@H](C(=O)NO)[C@@H]3c3ccccc3)c2)nc1 have IC50 strictly under 1000 nM?
Result block: True

Query block: Does CC(C)N1CCN(c2ccc([C@H]3[C@H](C(=O)NO)[C@@H]3c3ccccc3F)cn2)CC1 have IC50 strictly under 1000 nM?
Result block: True

Query block: Does O=C(NO)[C@@H]1[C@H](c2ccccc2)[C@H]1c1ccc(-n2ccnc2)cc1 (racemic) have IC50 strictly under 1000 nM?
Result block: False

Query block: Does O=C(NO)[C@@H]1[C@H](c2ccccc2)[C@H]1c1ccc(Br)cc1 (racemic) [Compound 16c] have IC50 strictly under 1000 nM?
Result block: False

Query block: Does O=C(NO)[C@@H]1[C@H](c2ccc(F)cc2)[C@H]1c1ccnc(C2CC2)c1 [Compound 28d] have IC50 strictly under 1000 nM?
Result block: True

Query block: Does CN1CCN(c2ccc([C@H]3[C@H](C(=O)NO)[C@@H]3c3ccccc3)cc2)CC1 (racemic) [Compound 56i] have IC50 strictly under 1000 nM?
Result block: False

Query block: Does Cc1cnc(-c2ccc([C@H]3[C@H](C(=O)NO)[C@@H]3c3ccccc3)cc2)nc1 (racemic) [Compound 50k] have IC50 strictly under 1000 nM?
Result block: True

Query block: Does O=C(NO)[C@H]1[C@H](c2ccnc(C3CC3)c2)[C@H]1c1ccccc1F [Compound 28c] have IC50 strictly under 1000 nM?
Result block: True

Query block: Does CC(C)Oc1ccccc1[C@@H]1C(c2ccccc2)[C@H]1C(=O)NO (mixture of isomers) [Compound 11a] have IC50 strictly under 1000 nM?
Result block: False

Query block: Does CC(C)c1nc2ccc([C@H]3[C@H](C(=O)NO)[C@@H]3c3ccccc3)cc2o1 have IC50 strictly under 1000 nM?
Result block: True

Query block: Does O=C(NO)[C@@H]1[C@H](c2ccccc2)[C@H]1c1ccc(-c2ncc(Cl)cn2)cc1 [Compound 50j] have IC50 strictly under 1000 nM?
Result block: True

Query block: Does O=C(NO)[C@@H]1[C@H](c2ccccc2)[C@H]1c1ccc2c(c1)OC(F)(F)O2 [Compound 28e] have IC50 strictly under 1000 nM?
Result block: False

Query block: Does O=C(NO)[C@H]1[C@H](c2cc(C3CC3)nc(C3CC3)c2)[C@H]1c1ccccc1F have IC50 strictly under 1000 nM?
Result block: False

Query block: Does O=C(NO)[C@@H]1[C@H](c2ccccc2)[C@H]1c1ccccc1F (racemic) [Compound 11b] have IC50 strictly under 1000 nM?
Result block: False

Query block: Does O=C(NO)[C@@H]1[C@H](c2ccccc2)[C@H]1c1ccc(-c2cnc(-c3ccccc3)o2)cc1 (racemic) have IC50 strictly under 1000 nM?
Result block: False

Query block: Does O=C(NO)[C@H]1[C@H](c2ccccc2)[C@H]1C1CCCCC1 (racemic) have IC50 strictly under 1000 nM?
Result block: False
